All figures here come from PubChem BioAssay AID504832.

Assay: Primary qHTS for delayed death inhibitors of the malarial parasite plastid, 48 hour incubation
Details: P. falciparum luciferase growth in erythrocytes; series mostly up to 28.7 µM
The campaign covered roughly 310,000 compounds. About 18,000 (5.8%) were called active. Inconclusive results (about 22%) are left out. The call rests on the fitted dose curve; in most records, active means well fitted inhibition curve with a large enough effect; inconclusive means small, poorly fitted or top-dose-only effect, or another doubt; inactive means no such curve, though single readings can be large or run the other way. Many of the other results were omitted from the sample, so actives are more common in it than they were.
Return exactly one item of Y = active, N = inactive

Answered examples (5):
[[record]]
compound = "Cc1nnc(NC(=O)c2ccc3nccnc3c2)s1"
label_value = "N"

[[record]]
compound = "CC[C@]1(O)C[C@@H]2CN(CCc3c([nH]c4ccccc34)[C@@](C(=O)OC)(c3cc4c(cc3OC)N(C)[C@H]3[C@@](O)(C(=O)OC)[C@H](OC(C)=O)[C@]5(CC)C=CCN6CC[C@]43[C@@H]65)C2)C1"
label_value = "Y"

[[record]]
compound = "O=C(CNC(=O)c1ccc(Br)o1)Nc1ccccc1"
label_value = "N"

[[record]]
compound = "COc1ccc(C(=O)NC(=S)N2CCCCC2c2cccnc2)cc1OC (stereo not drawn)"
label_value = "N"

[[record]]
compound = "c1ccc(C2CCC(N3CCC(N4CCCCC4)CC3)CC2)cc1 (stereo not drawn)"
label_value = "Y"


Tell me the recorded outcome of this test for Fc1cc(Br)ccc1NC(=S)Nc1cccnc1 .
N

Tell me the recorded outcome of this test for COc1ccc(CNC(=O)C(=O)NCC2OCCN2C(=O)c2ccc(OC)cc2)cc1 (stereo not drawn) .
N

Tell me the recorded outcome of this test for Cc1cc(-c2nnc(SCC(=O)Nc3ccc(S(N)(=O)=O)cc3)n2N)n[nH]1 .
N

Tell me the recorded outcome of this test for Cc1ccc(-c2nc(CS(=O)(=O)CC(=O)NCc3ccc4c(c3)OCO4)c(C)o2)cc1 .
N

Tell me the recorded outcome of this test for NS(=O)(=O)c1ccc(CCNC(=O)CN2C(=O)c3ccccc3S2(=O)=O)cc1 .
N

Tell me the recorded outcome of this test for Cc1ccn2c(=O)c(NC(=O)c3cccc4ccccc34)c(C)nc2c1 .
N

Tell me the recorded outcome of this test for Cc1cc(NC(=O)CCS(=O)(=O)c2ccc(F)cc2)no1 .
N

Tell me the recorded outcome of this test for COc1ccc(NC(=O)CN(C)C(=O)c2ccc(COc3ccccc3)o2)cc1 .
N
